Answer each item with its documented IC50.
# target_or_system: DDR1 kinase in DDR1-expressing U2OS cells (Homo sapiens, UniProt Q08345)
# Sequence (Q08345 19-913): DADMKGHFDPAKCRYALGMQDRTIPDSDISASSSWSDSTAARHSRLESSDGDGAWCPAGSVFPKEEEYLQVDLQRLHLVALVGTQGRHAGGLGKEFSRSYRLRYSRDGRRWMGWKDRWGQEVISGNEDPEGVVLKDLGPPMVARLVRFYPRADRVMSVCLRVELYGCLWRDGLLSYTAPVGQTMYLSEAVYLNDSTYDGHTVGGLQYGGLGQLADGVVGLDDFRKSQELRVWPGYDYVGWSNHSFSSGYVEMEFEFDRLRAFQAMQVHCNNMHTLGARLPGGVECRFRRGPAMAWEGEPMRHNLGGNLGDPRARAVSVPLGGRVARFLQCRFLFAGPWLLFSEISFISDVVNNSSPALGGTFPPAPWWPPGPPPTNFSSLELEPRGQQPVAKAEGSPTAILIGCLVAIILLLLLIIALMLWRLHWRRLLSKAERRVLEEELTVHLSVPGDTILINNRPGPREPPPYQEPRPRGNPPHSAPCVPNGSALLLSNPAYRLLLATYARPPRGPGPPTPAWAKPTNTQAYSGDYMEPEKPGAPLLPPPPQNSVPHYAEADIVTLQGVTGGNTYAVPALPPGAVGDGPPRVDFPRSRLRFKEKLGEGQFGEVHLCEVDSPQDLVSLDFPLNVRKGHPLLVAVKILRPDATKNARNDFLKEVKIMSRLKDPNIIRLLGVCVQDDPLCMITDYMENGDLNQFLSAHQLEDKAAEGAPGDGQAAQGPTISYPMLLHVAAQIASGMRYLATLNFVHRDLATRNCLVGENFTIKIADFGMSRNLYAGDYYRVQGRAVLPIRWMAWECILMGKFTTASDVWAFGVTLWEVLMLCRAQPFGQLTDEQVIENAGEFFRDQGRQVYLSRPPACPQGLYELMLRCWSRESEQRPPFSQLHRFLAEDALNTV
# measurement_notes: DDR1 kinase inhibitory effect in DDR1-expressing U2OS cells (PathHunter, type I collagen stimulation)
# experimental_parameters: type I collagen 50 μg/mL, 10% FBS, read-out: DDR-1 IC50
# Procedure: Test compounds in DMSO were prepared at 10 mM and diluted with DMSO to final concentrations of 1000, 100, 10, 1, and 0.1 μM. These solutions were diluted further with E-MEM medium (Fujifilm Wako Pure Chemical Industries, 051-07615) containing 10% fetal bovine serum (FBS, Gibco, 10270106) to 60,000, 6,000, 600, 60, 6, and 0.6 nM to obtain test sample solutions. […]
Counter-ions that a name gives are not always drawn.
API: value field is a number in µM; no unit string.

Which IC50 value is on record for `CCc1ccc(C(=O)N[C@H]2C[C@H](OC(F)(F)F)C[C@@H]2O)cc1NC(=O)c1cnc(C2CC2)s1` ?
0.044

Which IC50 value is on record for `NC(=O)c1ncc2cc(-c3cc(C(=O)N[C@H]4CC(F)(F)CC[C@@H]4O)cnc3C(F)(F)F)ccn12` ?
0.35

Which IC50 value is on record for `CCc1ccc(C(=O)N[C@H]2C[C@H](OC(F)(F)F)C[C@@H]2O)cc1NC(=O)c1cnc(-c2ccccc2)o1` ?
0.013

Which IC50 value is on record for `NC(=O)c1ncc2cc(-c3cc(C(=O)N[C@H]4C[C@H](OC(F)(F)F)C[C@@H]4O)cnc3C(F)(F)F)ccn12` ?
0.014

Which IC50 value is on record for Nc1ncc(C#Cc2cc(C(=O)N[C@H](CO)c3ccccc3)ccc2OC(F)F)cn1 [Example 36, hydrochloride] ?
0.23

Which IC50 value is on record for Nc1ncc(C#Cc2cc(C(=O)N[C@H](CO)Cc3ccc(Cl)cc3)ccc2OC(F)F)cn1 [Example 35, hydrochloride] ?
0.012

Which IC50 value is on record for `Cn1cc(C#Cc2cc(C(=O)N[C@H]3C[C@H](OC(F)(F)F)C[C@@H]3O)ccc2OC(F)F)cn1` ?
0.058

All values here come from patent US20260242343A1.
